Exercise: for every item that follows, state its recorded β-Antiparallel.
Biological target: α-glucosidase (Saccharomyces cerevisiae, UniProt P53341)
Sequence (P53341 whole entry): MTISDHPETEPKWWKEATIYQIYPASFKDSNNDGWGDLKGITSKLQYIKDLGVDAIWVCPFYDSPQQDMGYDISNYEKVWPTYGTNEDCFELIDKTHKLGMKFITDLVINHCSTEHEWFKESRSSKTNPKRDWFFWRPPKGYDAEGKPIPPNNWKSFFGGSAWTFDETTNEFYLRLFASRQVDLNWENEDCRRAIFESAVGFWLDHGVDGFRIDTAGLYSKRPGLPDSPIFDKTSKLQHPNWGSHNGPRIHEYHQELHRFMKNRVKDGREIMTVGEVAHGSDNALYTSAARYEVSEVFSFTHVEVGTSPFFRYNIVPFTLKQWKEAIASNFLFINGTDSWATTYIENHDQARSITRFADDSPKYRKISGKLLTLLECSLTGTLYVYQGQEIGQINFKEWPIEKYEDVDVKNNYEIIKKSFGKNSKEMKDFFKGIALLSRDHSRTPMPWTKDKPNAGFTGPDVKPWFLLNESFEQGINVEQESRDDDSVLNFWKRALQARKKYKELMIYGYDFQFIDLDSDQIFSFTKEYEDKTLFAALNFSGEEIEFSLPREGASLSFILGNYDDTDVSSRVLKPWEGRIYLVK
Experiment: FTIR secondary structure analysis of α-GLU complexes
Conditions: enzyme–porphyrin molar ratio 1:2, amide I band
Text: A molar ratio of 1:2 (α-amylase/α-glucosidase)–porphyrin solution was placed in a cryocentrifugal concentrator and the dried solid sample was mixed with dry KBr and measured using a Nicolet IS-50 FTIR Spectrometer (ThermoFisher, Waltham, MA, USA) with a scanning range of 4000–400 cm^−1 and a resolution of 4 cm^−1. […]
Numbers only, in %.

structure smiles string: Oc1ccc(-c2c3nc(c(-c4ccc(O)cc4)c4ccc([nH]4)c(-c4ccc(O)cc4)c4nc(c(-c5ccc(O)cc5)c5ccc2[nH]5)C=C4)C=C3)cc1
β-Antiparallel (%): 7.07

structure smiles string: Nc1ccc(-c2c3nc(c(-c4ccc(N)cc4)c4ccc([nH]4)c(-c4ccc(N)cc4)c4nc(c(-c5ccc(N)cc5)c5ccc2[nH]5)C=C4)C=C3)cc1
β-Antiparallel (%): 1.96

structure smiles string: O=C(O)c1ccc(-c2c3nc(c(-c4ccc(C(=O)O)cc4)c4ccc([nH]4)c(-c4ccc(C(=O)O)cc4)c4nc(c(-c5ccc(C(=O)O)cc5)c5ccc2[nH]5)C=C4)C=C3)cc1.[Ni+2]
β-Antiparallel (%): 1.88

structure smiles string: O=C(O)c1ccc(-c2c3nc(c(-c4ccc(C(=O)O)cc4)c4ccc([nH]4)c(-c4ccc(C(=O)O)cc4)c4nc(c(-c5ccc(C(=O)O)cc5)c5ccc2[nH]5)C=C4)C=C3)cc1.[Cu+2]
β-Antiparallel (%): 2.59

Task item: Item O=C(O)c1ccc(-c2c3nc(c(-c4ccc(C(=O)O)cc4)c4ccc([nH]4)c(-c4ccc(C(=O)O)cc4)c4nc(c(-c5ccc(C(=O)O)cc5)c5ccc2[nH]5)C=C4)C=C3)cc1 with α-glucosidase (Saccharomyces cerevisiae, UniProt P53341) - β-Antiparallel?
Reply: 9.57

----------
Target: α-glucosidase (Saccharomyces cerevisiae)
Test: FTIR secondary structure analysis of α-GLU complexes
Conditions: enzyme–porphyrin molar ratio 1:2, amide I band
I'd appreciate it if you could supply β-Turn values for the items below.
Answers are plain numbers, in %.

Previously resolved entries follow.
structure smiles string: Oc1ccc(-c2c3nc(c(-c4ccc(O)cc4)c4ccc([nH]4)c(-c4ccc(O)cc4)c4nc(c(-c5ccc(O)cc5)c5ccc2[nH]5)C=C4)C=C3)cc1
β-Turn [%]: 35.20
--
structure smiles string: O=C(O)c1ccc(-c2c3nc(c(-c4ccc(C(=O)O)cc4)c4ccc([nH]4)c(-c4ccc(C(=O)O)cc4)c4nc(c(-c5ccc(C(=O)O)cc5)c5ccc2[nH]5)C=C4)C=C3)cc1.[Ni+2]
β-Turn [%]: 37.94
--
structure smiles string: O=C(O)c1ccc(-c2c3nc(c(-c4ccc(C(=O)O)cc4)c4ccc([nH]4)c(-c4ccc(C(=O)O)cc4)c4nc(c(-c5ccc(C(=O)O)cc5)c5ccc2[nH]5)C=C4)C=C3)cc1.[Cu+2]
β-Turn [%]: 37.78
--
structure smiles string: O=C(O)c1ccc(-c2c3nc(c(-c4ccc(C(=O)O)cc4)c4ccc([nH]4)c(-c4ccc(C(=O)O)cc4)c4nc(c(-c5ccc(C(=O)O)cc5)c5ccc2[nH]5)C=C4)C=C3)cc1
β-Turn [%]: 33.54

Task item: Given Nc1ccc(-c2c3nc(c(-c4ccc(N)cc4)c4ccc([nH]4)c(-c4ccc(N)cc4)c4nc(c(-c5ccc(N)cc5)c5ccc2[nH]5)C=C4)C=C3)cc1 , state its recorded β-Turn.
Reply: 38.30

Where do the numbers come from? From paper PMC12467033.
